Catalogue of proteins with associated patients with anti-drug antibodies
experiment: patients with anti-drug antibodies; higher = more immunogenic
experimental endpoint: patients with anti-drug antibodies (%)

[[record]]
protein = "unnamed (protein) chain 1: EVQLVQSGAEVKKPGESLKISCKGSGRTFTSYNMHWVRQMPGKGLEWMGAIYPLTGDTSYNQKSKLQVTISADKSISTAYLQWSSLKASDTAMYYCARSTYVGGDWQFDVWGKGTTVTVSS chain 2: EIVLTQSPGTLSLSPGERATLSCRASSSVPYIHWYQQKPGQAPRLLIYATSALASGIPDRFSGSGSGTDFTLTISRLEPEDFAVYYCQQWLSNPPTFGQGTKLEIK"
experimental_endpoint = "patients with anti-drug antibodies"
measured_value = 1

[[record]]
protein = "unnamed (protein) chain 1: QVQLVQPGAEVVKPGASVKLSCKTSGYTFTSNWMHWVKQAPGQGLEWIGEIDPSDSYTNYNQNFQGKAKLTVDKSTSTAYMEVSSLRSDDTAVYYCARGSNPYYYAMDYWGQGTSVTVSS chain 2: EIVLTQSPAIMSASPGERVTMTCSASSGVNYMHWYQQKPGTSPRRWIYDTSKLASGVPARFSGSGSGTDYSLTISSMEPEDAATYYCHQRGSYTFGGGTKLEIK"
experimental_endpoint = "patients with anti-drug antibodies"
measured_value = 33

[[record]]
protein = "unnamed (protein) chain 1: EVKLEESGGGLVQPGGSMKLSCVASGFIFSNHWMNWVRQSPEKGLEWVAEIRSKSINSATHYAESVKGRFTISRDDSKSAVYLQMTDLRTEDTGVYYCSRNYYGSTYDYWGQGTTLTVSS chain 2: DILLTQSPAILSVSPGERVSFSCRASQFVGSSIHWYQQRTNGSPRLLIKYASESMSGIPSRFSGSGSGTDFTLSINTVESEDIADYYCQQSHSWPFTFGSGTNLEVK"
experimental_endpoint = "patients with anti-drug antibodies"
measured_value = 30.5

